Measured values drawn from ChEMBL document CHEMBL2331474 for this set.

measurement_target: Coagulation factor XII (Homo sapiens, UniProt P00748)
Peptide text beside a SMILES is read from it.
measurement_name: Ki
Reply with the number and its unit after it.

(Q) Provide Ki value for the following compound: CSCC[C@H](NC(=O)[C@H](CS)NC(=O)CN)C(=O)NCC(=O)N[C@@H](CCCNC(=N)N)C(=O)N1CCC[C@H]1C(=O)N[C@@H](CS)C(=O)N1CCC[C@H]1C(=O)N[C@H](C(=O)N[C@@H](CO)C(=O)N[C@@H](Cc1ccc(O)cc1)C(=O)N[C@@H](CS)C(=O)N[C@@H](Cc1ccccc1)C(=O)O)C(C)C (H-GCMGRPCPVSYCF-OH)
(A) 5 µM

----------
Protein target, amino acids: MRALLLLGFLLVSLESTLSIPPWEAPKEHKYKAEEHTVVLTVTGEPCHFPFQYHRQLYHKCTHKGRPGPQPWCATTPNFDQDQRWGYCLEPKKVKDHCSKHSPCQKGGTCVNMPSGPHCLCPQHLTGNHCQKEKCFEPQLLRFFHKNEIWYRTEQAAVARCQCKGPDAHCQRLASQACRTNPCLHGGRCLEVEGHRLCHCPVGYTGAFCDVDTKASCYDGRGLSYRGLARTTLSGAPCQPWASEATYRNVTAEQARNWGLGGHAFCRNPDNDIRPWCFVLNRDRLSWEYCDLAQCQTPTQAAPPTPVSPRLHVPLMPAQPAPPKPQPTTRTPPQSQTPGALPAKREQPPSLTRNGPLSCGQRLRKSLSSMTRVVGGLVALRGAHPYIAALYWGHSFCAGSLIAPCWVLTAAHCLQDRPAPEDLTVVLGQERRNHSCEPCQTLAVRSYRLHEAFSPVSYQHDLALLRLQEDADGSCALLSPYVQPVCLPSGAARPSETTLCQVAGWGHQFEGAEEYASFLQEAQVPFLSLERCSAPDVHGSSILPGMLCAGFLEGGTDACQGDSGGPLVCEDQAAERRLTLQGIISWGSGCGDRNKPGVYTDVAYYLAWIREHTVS
Numbered stars: 1 amine (or outer) side, 2 acyl side, 3 side chain; on linkers, the order of the positions; unused ones are H or OH. Bridge positions count the residues as written; N and C are the ends. Peptide text beside a SMILES is read from it. TBMB = c1c(C[*:1])cc(C[*:3])cc1C[*:2]
A collection of compounds and their measured Ki
Give the quantity in µM, number only.

# count of solved cases: 2
(Q) Return value of Ki for input C[C@@H]1NC(=O)[C@@H]2CCCN2C(=O)[C@@H]2CCCN2C(=O)[C@@H]2CSCc3cc(cc(c3)CSC[C@H](NC(=O)[C@@H](N)CO)C(=O)NCC(=O)NCC(=O)N[C@@H](CCCNC(=N)N)C(=O)N3CCC[C@H]3C(=O)N2)CSC[C@@H](C(=O)N[C@@H](CCCCN)C(=O)O)NC(=O)[C@H](Cc2ccc(O)cc2)NC1=O (H-SCGGRPCPPAYCK-OH; linker 2-7-12 via TBMB) , no commentary.
(A) 3.1

(Q) Entry C[C@H](NC(=O)[C@H](CC(N)=O)NC(=O)[C@H](CS)NC(=O)[C@@H](N)CCC(N)=O)C(=O)N[C@@H](CCCNC(=N)N)C(=O)N1CCC[C@H]1C(=O)N[C@@H](CS)C(=O)N1CCC[C@H]1C(=O)N[C@@H](CO)C(=O)N[C@@H](CO)C(=O)N[C@@H](Cc1ccc(O)cc1)C(=O)N[C@@H](CS)C(=O)N[C@@H](CCCNC(=N)N)C(=O)O (H-QCNARPCPSSYCR-OH) needs its Ki filled in; supply it.
(A) 4.7

--- query ---
(Q) Report Ki, nothing else, for this compound: CC(C)C[C@H](NC(=O)[C@@H]1CCCN1C(=O)[C@H](CS)NC(=O)[C@@H]1CCCN1C(=O)[C@H](CCCN=C(N)N)NC(=O)[C@H](C)NC(=O)[C@H](C)NC(=O)[C@H](CS)NC(=O)CN)C(=O)N[C@H](C(=O)N[C@@H](C)C(=O)N[C@@H](CS)C(=O)N[C@@H](Cc1c[nH]c2ccccc12)C(=O)O)[C@@H](C)O (H-GCAARPCPLTACW-OH)
(A) 33.5
